Biological target: Dopamine beta hydroxylase (Homo sapiens)
Construct: 125 μl of plasma; tissue Instituto Português do Sangue Transplantação; host or cells: human plasma from healthy donors
Sequence (P09172 40-617 limits assumed): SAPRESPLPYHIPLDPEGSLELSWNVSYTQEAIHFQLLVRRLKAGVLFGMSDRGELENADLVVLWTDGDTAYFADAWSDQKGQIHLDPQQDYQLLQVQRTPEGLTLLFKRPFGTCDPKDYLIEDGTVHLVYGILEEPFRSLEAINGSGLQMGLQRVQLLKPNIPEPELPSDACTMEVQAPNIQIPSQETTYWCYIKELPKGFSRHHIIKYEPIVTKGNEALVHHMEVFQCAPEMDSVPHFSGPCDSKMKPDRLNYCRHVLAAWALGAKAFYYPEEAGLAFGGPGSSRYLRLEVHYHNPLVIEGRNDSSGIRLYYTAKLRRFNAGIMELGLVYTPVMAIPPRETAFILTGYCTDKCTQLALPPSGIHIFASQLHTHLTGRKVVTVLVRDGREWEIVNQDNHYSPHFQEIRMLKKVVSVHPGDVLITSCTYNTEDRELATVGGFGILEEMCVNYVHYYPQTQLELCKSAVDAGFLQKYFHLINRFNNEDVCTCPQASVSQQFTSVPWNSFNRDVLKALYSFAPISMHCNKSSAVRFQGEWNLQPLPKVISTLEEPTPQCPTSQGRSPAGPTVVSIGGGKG
Experiment: Dopamine beta hydroxylase activity in human plasma
Assay type: biochemical
Settings: inhibitor 0.01 μM
Below is a list of entries, each paired with its recorded Plasma (0.01 μM), activity in % of control value.

The following compounds have reported results that may help.
• O=C(Cc1[nH]c(=S)n2c1[C@@H]1C[C@]1(c1c(F)ccc(Cl)c1F)C2)NCCn1cccn1 [Example 142] = 60.0 % of control
• Cn1c(CC(=O)N2CCOCC2)c2n(c1=S)C[C@H](c1c(F)ccc(Cl)c1F)C2 [Example 329] = 41.7 % of control
• CS(=O)(=O)CCNCCc1[nH]c(=S)n2c1C[C@H](c1c(F)ccc(Br)c1F)C2 [Example 182] = 94.6 % of control
• Cn1c(CC(=O)Nc2cnsc2)c2n(c1=S)C[C@@H](c1c(F)ccc(F)c1F)C2 [Example 351] = 46.2 % of control
• O=C(Cc1[nH]c(=S)n2c1C[C@@H](c1c(F)ccc(Br)c1F)C2)N1CC[S+]([O-])CC1 [Example 166] = 66.9 % of control

Input line: Report Plasma (0.01 μM), activity in % of control, nothing else, for this compound: CC(C)NC(=O)Cc1c2n(c(=S)n1C)C[C@H](c1c(F)ccc(Cl)c1F)C2 [Example 236]
Output line: 104.2 % of control

Input line: Report Plasma (0.01 μM), activity in % of control, nothing else, for this compound: Fc1cc(F)c(F)c([C@H]2Cc3c(CCc4cccnc4)[nH]c(=S)n3C2)c1F [Example 212]
Output line: 86.5 % of control

Input line: Report Plasma (0.01 μM), activity in % of control, nothing else, for this compound: CN(C(=O)Cc1[nH]c(=S)n2c1[C@@H]1C[C@]1(c1c(F)ccc(Cl)c1F)C2)C1CCOCC1 [Example 381]
Output line: 30.0 % of control

----------
Target: Dopamine beta hydroxylase (Homo sapiens)
Construct: 125 μl of plasma; tissue Instituto Português do Sangue Transplantação; host or cells: human plasma from healthy donors
Sequence (P09172 40-617 limits assumed): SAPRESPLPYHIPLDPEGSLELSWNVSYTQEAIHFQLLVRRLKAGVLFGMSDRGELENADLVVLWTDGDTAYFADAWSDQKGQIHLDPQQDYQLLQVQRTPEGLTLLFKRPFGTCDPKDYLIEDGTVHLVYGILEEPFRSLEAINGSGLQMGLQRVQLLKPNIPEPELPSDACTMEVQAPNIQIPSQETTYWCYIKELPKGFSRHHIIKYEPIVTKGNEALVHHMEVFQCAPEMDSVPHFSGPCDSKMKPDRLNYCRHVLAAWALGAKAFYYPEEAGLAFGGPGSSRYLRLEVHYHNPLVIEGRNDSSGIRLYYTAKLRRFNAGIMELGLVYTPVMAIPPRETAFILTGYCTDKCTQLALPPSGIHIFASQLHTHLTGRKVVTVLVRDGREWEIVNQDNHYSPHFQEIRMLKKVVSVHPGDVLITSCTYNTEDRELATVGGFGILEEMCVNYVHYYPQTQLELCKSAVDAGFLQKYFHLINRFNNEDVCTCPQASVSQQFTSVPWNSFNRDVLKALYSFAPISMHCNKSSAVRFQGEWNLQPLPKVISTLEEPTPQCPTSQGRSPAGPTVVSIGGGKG
Test: Dopamine beta hydroxylase activity in human plasma
Type: biochemical
Settings: inhibitor 0.01 μM
Below is a list of entries, each paired with its recorded Plasma (0.01 μM), activity in % of control value.

- CN(C(=O)Cc1[nH]c(=S)n2c1[C@@H]1C[C@]1(c1cc(Br)ccc1F)C2)C1CCCC1 [Example 155]: 91.5 % of control
- Cn1c(CC(=O)N2CC[C@@H](F)C2)c2n(c1=S)C[C@@H](c1c(F)ccc(F)c1F)C2 [Example 292]: 101.9 % of control
- O=C(Cc1[nH]c(=S)n2c1C[C@@H](c1c(F)ccc(Br)c1F)C2)NC1CCOCC1 [Example 410]: 62.3 % of control

Input line: Report Plasma (0.01 μM), activity in % of control, nothing else, for this compound: Cl.Fc1ccc(Cl)c(F)c1[C@@H]1Cc2c(CCN3CCOCC3)[nH]c(=S)n2C1 [Example 196]
Output line: 102.2 % of control

----------
Target: Dopamine beta hydroxylase (Homo sapiens, UniProt P09172)
Construct: 125 μl of plasma; tissue Instituto Português do Sangue Transplantação; host or cells: human plasma from healthy donors
Sequence (P09172 40-617 limits assumed): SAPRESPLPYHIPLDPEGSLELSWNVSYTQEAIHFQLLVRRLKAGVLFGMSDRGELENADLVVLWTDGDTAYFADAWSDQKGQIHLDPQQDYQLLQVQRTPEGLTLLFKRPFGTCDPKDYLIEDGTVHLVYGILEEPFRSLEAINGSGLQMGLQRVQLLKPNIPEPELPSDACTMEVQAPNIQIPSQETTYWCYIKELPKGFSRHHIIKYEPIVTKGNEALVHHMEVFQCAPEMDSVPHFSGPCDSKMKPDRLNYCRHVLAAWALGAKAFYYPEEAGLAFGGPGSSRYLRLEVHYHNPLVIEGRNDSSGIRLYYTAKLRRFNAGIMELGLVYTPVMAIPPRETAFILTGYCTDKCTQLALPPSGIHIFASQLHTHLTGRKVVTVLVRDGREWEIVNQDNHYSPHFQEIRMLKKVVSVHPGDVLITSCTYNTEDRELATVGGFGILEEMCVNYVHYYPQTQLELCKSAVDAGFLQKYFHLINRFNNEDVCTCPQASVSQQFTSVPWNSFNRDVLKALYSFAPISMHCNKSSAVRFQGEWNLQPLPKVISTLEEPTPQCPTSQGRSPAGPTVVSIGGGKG
Assay: Dopamine beta hydroxylase activity in human plasma
Assay type: biochemical
Conditions: inhibitor 0.1 μM
parameter: Plasma (0.1 μM), activity in % of control

The following compounds have reported results that may help.
* CN(C(=O)Cc1[nH]c(=S)n2c1C[C@@H](c1c(F)ccc(Cl)c1F)C2)C1CCOCC1 | 27.4 % of control
* NC(=O)Cc1[nH]c(=S)n2c1[C@@H]1C[C@]1(c1c(F)ccc(Br)c1F)C2 | 18.1 % of control
* Cn1c(CC(=O)N2CCOCC2)c2n(c1=S)C[C@@H](c1c(F)ccc(F)c1F)C2 | 61.6 % of control
* Cn1c(CC(=O)NC2(C#N)CC2)c2n(c1=S)C[C@@H](c1c(F)ccc(F)c1F)C2 | 62.2 % of control
* Cn1c(CCC(=O)N2CCCC2)c2n(c1=S)C[C@@H](c1c(F)c(F)cc(F)c1F)C2 | 31.8 % of control
* CN(CCO)C(=O)Cc1c2n(c(=S)n1C)C[C@@H](c1c(F)ccc(F)c1F)C2 | 86.0 % of control
* Cc1noc(Cc2[nH]c(=S)n3c2C[C@@H](c2c(F)ccc(Cl)c2F)C3)n1 | 56.0 % of control
* Cn1c(CCC(=O)N2CCCC2)c2n(c1=S)C[C@@H](c1c(F)cccc1F)C2 | 54.2 % of control

Input line: Would you please give the reported Plasma (0.1 μM), activity in % of control of `CN(C)C(=O)C1CCN(C(=O)Cc2c3n(c(=S)n2C)C[C@H](c2c(F)ccc(Br)c2F)C3)CC1` with Dopamine beta hydroxylase (Homo sapiens, UniProt P09172)?
Output line: 12.8 % of control

Input line: Would you please give the reported Plasma (0.1 μM), activity in % of control of `CCOC(=O)C(Cc1[nH]c(=S)n2c1C[C@H](c1c(F)c(F)cc(F)c1F)C2)C(=O)OCC` with Dopamine beta hydroxylase (Homo sapiens, UniProt P09172)?
Output line: 66.4 % of control

Input line: Would you please give the reported Plasma (0.1 μM), activity in % of control of `CS(=O)(=O)C1CCN(C(=O)Cc2[nH]c(=S)n3c2C[C@@H](c2c(F)ccc(Br)c2F)C3)CC1` with Dopamine beta hydroxylase (Homo sapiens, UniProt P09172)?
Output line: 6.3 % of control

Input line: Would you please give the reported Plasma (0.1 μM), activity in % of control of `CN(C)C(=O)CN1CCN(C(=O)Cc2[nH]c(=S)n3c2C[C@H](c2c(F)c(F)cc(F)c2F)C3)CC1` with Dopamine beta hydroxylase (Homo sapiens, UniProt P09172)?
Output line: 59.1 % of control

Input line: Would you please give the reported Plasma (0.1 μM), activity in % of control of `Cl.Cn1c(CC(=O)NCc2ccccn2)c2n(c1=S)C[C@@]1(c3cc(Cl)ccc3F)C[C@@H]21` with Dopamine beta hydroxylase (Homo sapiens, UniProt P09172)?
Output line: 2.7 % of control

Sourced from patent US11434242B2
